# assayed-system: G-protein coupled receptor 6 (Homo sapiens, UniProt P46095)
# Sequence (P46095 whole entry): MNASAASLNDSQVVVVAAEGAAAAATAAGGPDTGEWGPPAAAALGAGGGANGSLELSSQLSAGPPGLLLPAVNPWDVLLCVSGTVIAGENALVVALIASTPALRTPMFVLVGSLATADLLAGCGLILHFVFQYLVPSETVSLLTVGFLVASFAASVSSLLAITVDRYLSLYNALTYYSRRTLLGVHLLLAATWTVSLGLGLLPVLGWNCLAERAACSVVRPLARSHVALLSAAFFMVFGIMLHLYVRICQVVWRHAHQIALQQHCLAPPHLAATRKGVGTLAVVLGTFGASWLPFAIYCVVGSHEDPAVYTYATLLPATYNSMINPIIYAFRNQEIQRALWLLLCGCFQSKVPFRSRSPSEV
# assay-details: Modulation activity at GPR6 receptor (unknown origin) expressed in CHO-K1 cells assessed as inhibition of constitutive cAMP activity incubated for 45 mins in presence of 300 uM IBMX by Perkin Elmer Lance HTRF Ultrac-AMP assay
# Assay type: functional, cell-based
# particulars: cho-k1
result-type: IC50 (nM)

In [3]: df
Out[3]:
                                   compound  data_value
0  CC(=O)N1CCc2nc(N3CCN(Cc4ccc(F)cc4F)CC3)c(N[C@H]3C[C@@H](O)C3)nc2C1         122
1  COc1ccc(S(=O)(=O)C2CCN(c3nc4c(nc3NC(C)C)CCN(C(C)=O)C4)CC2)c(F)c1         200
2  CC(C)Nc1nc2c(nc1N1CCN(Cc3ccc(F)cc3F)CC1)CCN(C(=O)C(C)C)C2          29
3  CC(C)Nc1nc2c(nc1N1CCC(Oc3ccc(F)cc3F)CC1)CN(C)CC2        59.5
4  COCC(=O)N1CCc2nc(NCC(F)F)c(N3CCC(Oc4ccc(F)cc4F)CC3)nc2C1        79.5
5  CC(C)Nc1nc2c(nc1N1CCC([C@@H](F)c3ccc(F)cc3F)CC1)CCN(C=O)C2        23.6
6  CC(=O)N1CCc2nc(N3CCN(Cc4ccc(F)cc4F)CC3)c(N[C@H]3CCOC3)nc2C1        97.8
7  CS(=O)(=O)N1CCc2nc(NCC(F)F)c(N3CCC(Oc4ccc(F)cc4F)CC3)nc2C1         163
8  CC1c2nc(NCC(F)F)c(N3CCC(Oc4ccc(F)cc4F)CC3)nc2CCN1C(=O)C(F)F (centres undefined)         212
